Target: Histone deacetylase 2 (Homo sapiens)
Sequence (Q92769 whole entry): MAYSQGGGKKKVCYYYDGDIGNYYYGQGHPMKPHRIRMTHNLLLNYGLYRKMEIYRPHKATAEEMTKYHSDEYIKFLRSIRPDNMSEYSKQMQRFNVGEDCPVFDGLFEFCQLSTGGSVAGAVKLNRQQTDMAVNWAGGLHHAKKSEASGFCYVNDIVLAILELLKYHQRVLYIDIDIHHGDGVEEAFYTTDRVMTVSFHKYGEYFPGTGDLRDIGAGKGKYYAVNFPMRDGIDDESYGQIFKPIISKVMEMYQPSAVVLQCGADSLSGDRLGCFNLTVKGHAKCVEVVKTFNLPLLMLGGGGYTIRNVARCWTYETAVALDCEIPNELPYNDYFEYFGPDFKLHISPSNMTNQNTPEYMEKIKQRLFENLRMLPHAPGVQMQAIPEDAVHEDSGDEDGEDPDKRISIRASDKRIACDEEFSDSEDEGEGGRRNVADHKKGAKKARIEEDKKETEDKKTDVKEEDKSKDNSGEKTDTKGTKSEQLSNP
Assay: Inhibition of human recombinant C-terminal FLAG-tagged HDAC2 using Boc-Lys-(epsilon-Ac)-AMC as fluorogenic substrate incubated for 90 mins by fluorescence based assay
Listed here are molecules together with their documented pIC50.
Please keep in mind that pIC50 is minus log10 of the molar concentration; only the number is needed.

C[C@@H](Nc1ccccc1)c1ccc(C(=O)Nc2ccccc2N)cc1 ... 5.38
Nc1ccccc1NC(=O)c1ccc(C(=O)Nc2ccccc2)cc1 ... 5.27
C[C@H](Nc1ccccc1)c1ccc(C(=O)Nc2ccccc2N)cc1 ... 5.08
CC(Nc1ccccc1)c1ccc(C(=O)Nc2ccccc2N)cc1 (stereo not drawn) ... 5.15
Nc1ccccc1NC(=O)CCCCCC(=O)c1ccccc1 ... 5.43
CN(Cc1ccc(C(=O)Nc2ccccc2N)cc1)c1ccccc1 ... 6.30
Nc1ccccc1NC(=O)CCCCCNc1ccccc1 ... 5.89

Let's switch to this molecule now.
**Q:** Requested read-out: pIC50. Entry: Nc1ccccc1NC(=O)c1ccc(CNc2ccccc2)cc1
**A:** 5.85

Origin of measurements: ChEMBL document CHEMBL4351000
